pIC50 values for the compounds below.
# subject_of_test: PI3K-α (PIK3CA) wild-type (WT), p110α/p85α complex (Homo sapiens, UniProt P42336)
# Construct: Recombinant, catalytically active human full length PIK3KA Wild-type and H1047R mutant; 6×His (N); purchased EMD Millipore Sigma 14-602M
# procedure_summary: PI3K-alpha kinase (PIK3CA) biochemical activity, ADP-Glo, wild-type
# cond: Soy PI lipid substrate
pIC50: −log10 of the molar value.

Record excerpt, results attached:
compound: Cc1cc([C@@H](C)Nc2ccc(Cl)nc2C(=O)O)c2oc(-c3ccc4nc(C)sc4n3)cc(=O)c2c1
pIC50: 5.30 to 6.00
//
compound: Cc1cc(C(C)Nc2ccccc2C(=O)O)c2oc(-n3ncc4ccccc43)cc(=O)c2c1 (single isomer, unassigned)
pIC50: 6.00 to 6.30
//
compound: C[C@@H](Nc1ccc(Cl)nc1C(=O)O)c1cc(C(F)(F)F)cc2c(=O)cc(-c3ccc4nn(C)cc4c3)oc12
pIC50: 6.00 to 6.30
//
compound: Cc1cc([C@@H](C)Nc2ccc(C(F)(F)F)nc2C(=O)O)c2oc(-c3ccc4nc(C)sc4n3)c(C)c(=O)c2c1
pIC50: 5.30 to 6.00
//
compound: Cc1cc(C(C)Nc2ccc(F)c(F)c2C(=O)O)c2oc(-c3ccc4nc(C)cn4n3)cc(=O)c2c1 (stereo not shown)
pIC50: < 5.00

// pIC50 value for Cc1cc(C(C)Nc2ccccc2C(=O)O)c2oc(-c3cnn4cccnc34)cc(=O)c2c1 (stereo not shown) [Example 6] : 5.30 to 6.00

* * *

# subject_of_test: PI3K-α (PIK3CA) wild-type (WT), p110α/p85α complex (Homo sapiens)
# Construct: Recombinant, catalytically active human full length PIK3KA Wild-type and H1047R mutant; 6×His (N); purchased EMD Millipore Sigma 14-602M
# procedure_summary: PI3K-alpha kinase (PIK3CA) biochemical activity, ADP-Glo, wild-type
# cond: Soy PI lipid substrate
pIC50: −log10 of the molar value.
experimental_readout: pIC50

Record excerpt, results attached:
compound: Cc1cc(C(C)Nc2ccccc2C(=O)O)c2oc(-n3nnc4ccccc43)cc(=O)c2c1 (single isomer, unassigned)
pIC50: 5.30 to 6.00
//
compound: Cc1cc(-c2cc(=O)c3cc(C(F)(F)F)cc(C(C)Nc4ccc(Cl)nc4C(=O)O)c3o2)cc2cn(C)nc12 (single isomer, unassigned) [Example 191]
pIC50: 6.00 to 6.30
//
compound: Cc1cc([C@@H](C)Nc2ccc(C)nc2C(=O)O)c2oc(-c3ccc4nc(C)sc4n3)cc(=O)c2c1
pIC50: 5.00 to 5.30
//
compound: Cc1cc([C@@H](C)Nc2cccc(F)c2C(=O)O)c2oc(-c3ccc4nn(C)cc4c3)c(C)c(=O)c2c1
pIC50: 6.00 to 6.30
//
compound: Cc1cc(C(C)Nc2ccccc2C(=O)O)c2oc(-c3cnc4nn(C)cc4c3)cc(=O)c2c1 (single isomer, unassigned) [Example 42]
pIC50: 5.30 to 6.00

Reported pIC50 (PI3K-α (PIK3CA) wild-type (WT), p110α/p85α complex (Homo sapiens)) for entry Cc1cc(C(C)Nc2ccccc2C(=O)O)c2oc(-c3ccc4cc[nH]c4n3)cc(=O)c2c1 (single isomer, unassigned) [Example 4] is 6.00 to 6.30

Reported pIC50 (PI3K-α (PIK3CA) wild-type (WT), p110α/p85α complex (Homo sapiens)) for entry Cc1cc(C(C)Nc2ccc(Cl)nc2C(=O)O)c2oc(-c3ccc4cc[nH]c4n3)cc(=O)c2c1 (single isomer, unassigned) [Example 216] is < 5.00

Reported pIC50 (PI3K-α (PIK3CA) wild-type (WT), p110α/p85α complex (Homo sapiens)) for entry Cc1cc(C(C)Nc2ccccc2C(=O)O)c2oc(-c3ccc4nc(C)cn4n3)cc(=O)c2c1 (single isomer, unassigned) [Example 69] is 5.30 to 6.00

Reported pIC50 (PI3K-α (PIK3CA) wild-type (WT), p110α/p85α complex (Homo sapiens)) for entry Cc1cc([C@@H](C)Nc2ccc(C)nc2C(=O)O)c2oc(-c3ccc4nc(C)sc4n3)c(C)c(=O)c2c1 is 5.30 to 6.00

Reported pIC50 (PI3K-α (PIK3CA) wild-type (WT), p110α/p85α complex (Homo sapiens)) for entry Cc1cc(C(C)Nc2ccccc2C(=O)O)c2oc(-c3ccn4ccnc4c3)cc(=O)c2c1 (single isomer, unassigned) is 5.30 to 6.00

Reported pIC50 (PI3K-α (PIK3CA) wild-type (WT), p110α/p85α complex (Homo sapiens)) for entry Cc1cc(C(C)Nc2ccc(C)nc2C(=O)O)c2oc(-c3cc4ccccc4[nH]3)cc(=O)c2c1 (centres unmarked) is 5.30 to 6.00
